Hi there, I'd appreciate the recorded IC50 for every entry that follows.
Molecular target: HDAC2 (Homo sapiens, UniProt Q92769)
Construct: purchased Reaction Biology Corporation (assay run by the CRO)
Sequence (Q92769 whole entry): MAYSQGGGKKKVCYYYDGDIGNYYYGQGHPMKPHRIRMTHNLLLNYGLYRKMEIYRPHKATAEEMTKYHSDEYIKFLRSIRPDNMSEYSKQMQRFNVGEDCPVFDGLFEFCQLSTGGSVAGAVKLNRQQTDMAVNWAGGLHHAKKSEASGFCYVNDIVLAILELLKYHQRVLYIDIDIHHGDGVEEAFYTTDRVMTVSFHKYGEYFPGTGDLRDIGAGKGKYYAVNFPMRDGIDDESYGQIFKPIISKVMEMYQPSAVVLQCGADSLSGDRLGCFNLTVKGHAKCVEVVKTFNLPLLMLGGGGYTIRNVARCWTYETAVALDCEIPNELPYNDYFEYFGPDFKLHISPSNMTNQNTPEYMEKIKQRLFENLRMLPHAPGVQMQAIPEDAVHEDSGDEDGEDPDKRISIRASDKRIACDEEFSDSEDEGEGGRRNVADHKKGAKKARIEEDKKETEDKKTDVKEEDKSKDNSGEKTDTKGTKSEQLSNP
Assay: Initial HDAC2 IC50 estimate (BPS Biosciences HDAC fluorogenic assay kit)
Type: biochemical
Details: Supplementary Dataset 2; read-out: HDAC2 activity (initial activity)
Peptide text beside a SMILES is read from it.
Give bare numbers, in µM.

N=C(N)NCCC[C@@H]1NC(=O)[C@@H](CCCNC(=N)N)NC(=O)[C@H]2CCCN2C(=O)[C@@H](Cc2c[nH]cn2)NC(=O)[C@H](Cc2ccc(O)cc2)NC(=O)[C@H](CCCCCS)NC(=O)[C@H](CCc2ccccc2)NC(=O)[C@@H](CO)NC(=O)[C@H](CC(=O)O)NC1=O [des3.3.1, SHA-Tyr-dHis-dPro-dArg-Arg-Asp-dSer-C27] (HELM PEPTIDE1{[O=C([C@H](CCCCCS)N[*:1])[*:2]].Y.[dH].[dP].[dR].R.D.[dS].[O=C([C@H](CCc1ccccc1)N[*:1])[*:2]]}$PEPTIDE1,PEPTIDE1,1:R1-9:R2$$$V2.0) | 0.02

We now examine a further compound.
Entry under test: CC(C)[C@@H]1NC(=O)[C@H](CCCNC(=N)N)NC(=O)[C@@H](CC(=O)O)NC(=O)[C@H](CO)NC(=O)[C@@H](CO)NC(=O)[C@@H](CCC(=O)O)NC(=O)[C@H](Cc2ccc(O)cc2)NC(=O)[C@H](CCCCCS)NC1=O [des4.2.0, SHA-Tyr-dGlu-dSer-Ser-dAsp-Arg-Val] (HELM PEPTIDE1{R.V.[O=C([C@H](CCCCCS)N[*:1])[*:2]].Y.[dE].[dS].S.[dD]}$PEPTIDE1,PEPTIDE1,1:R1-8:R2$$$V2.0) . Its IC50 was 0.2

* * *

Molecular target: HDAC2 (Homo sapiens, UniProt Q92769)
Construct: purchased Reaction Biology Corporation (assay run by the CRO)
Test: HDAC2 inhibition, full IC50 measurement (Reaction Biology; fluorogenic p53 peptide RHKK(Ac)AMC)
Format: biochemical
Conditions: Conc. 1.11E-06 M, t1
Peptide text beside a SMILES is read from it.
READOUT KIND: HDAC2 activity raw data (signal)
Give bare numbers.

Entry under test: N=C(N)NCCC[C@H]1NC(=O)[C@@H]2CCCN2C(=O)[C@H](CO)NC(=O)[C@@H](Cc2c[nH]cn2)NC(=O)[C@H](CCCCCS)NC(=O)[C@H](CCCCN)NC(=O)[C@H](Cc2ccc(O)cc2)NC(=O)[C@H]2CCCN2C(=O)[C@@H](CCC(N)=O)NC1=O [des3.1.0, SHA-dHis-Ser-Pro-dArg-dGln-dPro-Tyr-Lys] (HELM PEPTIDE1{K.[O=C([C@H](CCCCCS)N[*:1])[*:2]].[dH].S.P.[dR].[dQ].[dP].Y}$PEPTIDE1,PEPTIDE1,1:R1-9:R2$$$V2.0) . Its HDAC2 activity raw data (signal) was 433904

* * *

Biological target: HDAC6 (Homo sapiens, UniProt Q9UBN7)
Construct: purchased Reaction Biology Corporation (assay run by the CRO)
Sequence (Q9UBN7 1-1215): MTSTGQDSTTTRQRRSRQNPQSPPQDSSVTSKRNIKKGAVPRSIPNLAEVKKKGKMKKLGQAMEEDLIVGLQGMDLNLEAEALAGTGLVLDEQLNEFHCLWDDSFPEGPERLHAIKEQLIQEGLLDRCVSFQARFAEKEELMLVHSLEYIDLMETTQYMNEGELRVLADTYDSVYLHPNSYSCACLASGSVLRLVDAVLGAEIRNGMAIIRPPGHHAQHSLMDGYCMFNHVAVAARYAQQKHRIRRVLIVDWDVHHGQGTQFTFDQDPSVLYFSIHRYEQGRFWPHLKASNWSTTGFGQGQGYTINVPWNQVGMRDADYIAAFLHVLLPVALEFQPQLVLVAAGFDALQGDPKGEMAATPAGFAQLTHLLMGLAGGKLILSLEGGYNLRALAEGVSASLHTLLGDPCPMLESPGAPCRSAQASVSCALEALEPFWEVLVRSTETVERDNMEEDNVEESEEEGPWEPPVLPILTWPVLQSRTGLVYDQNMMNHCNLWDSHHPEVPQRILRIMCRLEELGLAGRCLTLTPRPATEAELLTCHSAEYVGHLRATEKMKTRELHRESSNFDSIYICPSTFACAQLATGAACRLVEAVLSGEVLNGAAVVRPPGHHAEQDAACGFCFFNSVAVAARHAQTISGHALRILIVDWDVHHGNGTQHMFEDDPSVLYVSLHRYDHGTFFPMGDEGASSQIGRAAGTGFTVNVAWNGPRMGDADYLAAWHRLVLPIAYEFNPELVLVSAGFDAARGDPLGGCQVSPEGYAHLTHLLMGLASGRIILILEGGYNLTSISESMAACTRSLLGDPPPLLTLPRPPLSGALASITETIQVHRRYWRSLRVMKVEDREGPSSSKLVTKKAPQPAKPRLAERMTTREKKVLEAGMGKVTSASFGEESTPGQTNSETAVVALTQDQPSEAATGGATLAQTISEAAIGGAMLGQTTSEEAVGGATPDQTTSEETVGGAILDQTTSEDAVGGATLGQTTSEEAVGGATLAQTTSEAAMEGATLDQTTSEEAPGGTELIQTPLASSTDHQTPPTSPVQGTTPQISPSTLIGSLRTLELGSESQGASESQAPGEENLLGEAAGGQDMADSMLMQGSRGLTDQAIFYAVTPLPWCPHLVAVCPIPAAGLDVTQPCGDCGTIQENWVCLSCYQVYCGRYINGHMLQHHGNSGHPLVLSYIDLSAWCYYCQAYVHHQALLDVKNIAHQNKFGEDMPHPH
Experiment: HDAC6 inhibition, full IC50 measurement (Reaction Biology; fluorogenic p53 peptide RHKK(Ac)AMC)
Assay type: biochemical
Details: read-out: HDAC6 IC50
READOUT KIND: pIC50
Answers are plain numbers, as −log10 of the molar value.

Entry under test: N[C@@H](CCCCCS)C(=O)O . Its pIC50 was 6.22

* * *

Hi there, I'd appreciate the recorded HDAC6 activity raw data (signal) for every entry that follows.
Target: HDAC6 (Homo sapiens, UniProt Q9UBN7)
Construct: purchased Reaction Biology Corporation (assay run by the CRO)
Test: HDAC6 inhibition, full IC50 measurement (Reaction Biology; fluorogenic p53 peptide RHKK(Ac)AMC)
Assay type: biochemical
Details: Conc. 1.37E-08 M, t2
Method: The assay was performed using 50 μM fluorogenic peptide from p53 residues 379-382 [RHKK(Ac)AMC] in a base reaction buffer of 50 mM Tris-HCl at pH 8.0, 137 mM NaCl, 2.7 mM KCl, 1 mM MgCl2, and freshly added 1 mg/ml BSA and 1% DMSO. […] Peptide concentrations were calculated based on mass of lyophilized peptide and its molecular weight. […]
Peptide text beside a SMILES is read from it.
Give bare numbers.

Below are some compounds; for each one, tell me its HDAC6 activity raw data (signal).
1. CC(C)C[C@H]1NC(=O)[C@H](Cc2c[nH]c3ccccc23)NC(=O)[C@H](CCCCCS)NC(=O)[C@@H](Cc2ccc(O)cc2)NC(=O)[C@@H](C(C)C)NC(=O)[C@H](Cc2c[nH]cn2)NC(=O)CNC(=O)CNC(=O)[C@@H](CO)NC1=O [des2.2.0, SHA-Trp-dLeu-dSer-Gly-Gly-His-dVal-dTyr] (HELM PEPTIDE1{G.G.H.[dV].[dY].[O=C([C@H](CCCCCS)N[*:1])[*:2]].W.[dL].[dS]}$PEPTIDE1,PEPTIDE1,1:R1-9:R2$$$V2.0)
2. C[C@H](O)[C@H]1NC(=O)[C@H](Cc2c[nH]c3ccccc23)NC(=O)[C@H](CCCCCS)NC(=O)[C@H](CCCCN)NC(=O)[C@@H](CC(=O)O)NC(=O)[C@@H](CCCCN)NC(=O)[C@@H](CO)NC(=O)[C@H](CC(N)=O)NC(=O)[C@H](CC(=O)O)NC1=O [des2.1.0, SHA-Trp-dThr-Asp-Asn-dSer-dLys-dAsp-Lys] (HELM PEPTIDE1{D.N.[dS].[dK].[dD].K.[O=C([C@H](CCCCCS)N[*:1])[*:2]].W.[dT]}$PEPTIDE1,PEPTIDE1,1:R1-9:R2$$$V2.0)

1. 164330
2. 375237

* * *

Target: HDAC2 (Homo sapiens)
Construct: purchased Reaction Biology Corporation (assay run by the CRO)
Assay: HDAC2 inhibition, full IC50 measurement (Reaction Biology; fluorogenic p53 peptide RHKK(Ac)AMC)
Format: biochemical
Details: Conc. 1.23E-07 M, t2
Peptide text beside a SMILES is read from it.
READOUT KIND: HDAC2 activity raw data (signal)
Give bare numbers.

CC(C)[C@@H]1NC(=O)[C@H](CCCNC(=N)N)NC(=O)[C@@H](CC(=O)O)NC(=O)[C@H](CO)NC(=O)[C@@H](CO)NC(=O)[C@@H](CCC(=O)O)NC(=O)[C@H](Cc2ccc(O)cc2)NC(=O)[C@H](CCCCCS)NC1=O [des4.2.0, SHA-Tyr-dGlu-dSer-Ser-dAsp-Arg-Val] (HELM PEPTIDE1{R.V.[O=C([C@H](CCCCCS)N[*:1])[*:2]].Y.[dE].[dS].S.[dD]}$PEPTIDE1,PEPTIDE1,1:R1-8:R2$$$V2.0) | 1073630

We now examine a further compound.
Entry under test: CCCC[C@H]1NC(=O)[C@H](Cc2ccccc2)NC(=O)[C@H](CCCCCS)NC(=O)[C@@H](CO)NC(=O)[C@H](CC(=O)O)NC(=O)[C@@H](CO)NC(=O)[C@@H](C)NC(=O)[C@H](CCCCN)NC1=O [des4.3.1.1, SHA-Phe-dNle-Lys-dAla-dSer-Asp-dSer] (HELM PEPTIDE1{D.[dS].[O=C([C@H](CCCCCS)N[*:1])[*:2]].F.[CCCC[C@@H](N[*:1])C(=O)[*:2]].K.[dA].[dS]}$PEPTIDE1,PEPTIDE1,1:R1-8:R2$$$V2.0) . Its HDAC2 activity raw data (signal) was 1879798

Where do the numbers come from? From paper PMC8185074.
